Test system: Colon cancer organoid
assay summary: Optimized Dual-Glo assay to identify co-culture induced drug vulnerabilities using donated chemical probes and chemogenomics kinase set in O06 CRC organoid and F06 CAF mono and co-culture. […] Cell viability is reported both mono and co-culture models.
Format: functional, Homo sapiens
Parameters: dose or concentration left out as unconfirmed
condition: Culture type Mono-Culture; Transduced with Renilla-dsRed lentivirus
property name: Cell Viability
Please format your answer as a value with the unit trailing.

Lookup result for "O=C(Nc1cccnc1)c1cc(-c2ccnc(F)c2)ccc1OCc1ccccc1" ; measured Cell Viability: 99.0368%

Cell Viability measured on "Cc1cn(-c2cc(NC(=O)c3ccc4c(c3)CN(c3cncnc3)C[C@@H]4C)cc(C(F)(F)F)c2)cn1" = 105.628%

Record summary for "Clc1cc2c(NC3CCCC3)nnc(-c3ccncc3)c2cc1Cl" : reported Cell Viability = 87.2375%

Entry "Cc1cc2c(-c3ccco3)cnc(N[C@@H]3CCN(C)C[C@H]3C(=O)NC3CCCCC3)c2[nH]c1=O" ; Cell Viability = 179.691%

Reported Cell Viability of "O=C(NC[C@@H]1[C@H]2CN(C(=O)OCc3cc(C(F)(F)F)cc(C(F)(F)F)c3)C[C@@H]12)c1ccc2[nH]nnc2c1" : 89.0013%

The recorded Cell Viability for entry "CN1C[C@H](Nc2cnn(C)c(=O)c2Br)C[C@H](c2ccccc2)C1" equals 109.538%

Measured Cell Viability of "O=C(c1ccc(F)c(F)c1Nc1ccc(I)cc1F)N1CC(O)([C@@H]2CCCCN2)C1" : 35.0976%

Please fill in: Cell Viability reported for "Cn1cncc1[C@@](O)(COc1ccc(C#N)cc1-c1ccc(OC(F)(F)F)cc1)c1ccc(C#N)cc1" = 108.002%

Looking up "C[C@H](NC(=O)c1cnc2n1[C@](C)(Cc1ccc(C#N)cc1)C(=O)N2c1cc(Cl)c(F)c(Cl)c1)C(=O)NC1(c2ccccn2)CC1" , I see its Cell Viability listed as 104.666%

response.value for "CC[C@H](CO)Nc1nc(NCc2ccccc2)c2ncn(C(C)C)c2n1" (field: Cell Viability) = 105.93%

Consider "Cc1cc(C)cc(C(=O)NOCCCCCC(=O)NO)c1" . Its measured Cell Viability is 431.4%

Just so you know, measured Cell Viability for CCC(=O)N1CCOc2c(cc(-c3ccc(OC)c(OC)c3)cc2OCC2CCCN(C)C2)C1 (configuration not stated) came out at 100.645%

The recorded Cell Viability for "CNc1nc(-c2ccc3c(N)n[nH]c3c2)cc(N2C[C@@H](C(=O)NC3CCCCC3)CC[C@H]2C)n1" is 54.6916%

For this molecule ( "COc1ccc2c(c1)O[C@H](c1ccc(OC)c(OC)c1)C[C@@H]2NC(=O)C1(c2ccc3c(c2)OC(F)(F)O3)CC1" ), measured Cell Viability is 108.119%

"COc1cc(Nc2ccnc3ccc(Br)cc23)cc(OC)c1OC" has a reported Cell Viability of 101.861%

// sample COc1cccc2c1C(=O)c1c(O)c3c(c(O)c1C2=O)CC(O)(C(=O)CO)CC3OC1CC(N)C(O)C(C)O1.Cl (configuration not stated) , its Cell Viability was 104.821%

So for "COc1cc2c(NC3CCN(C(C)C)CC3)nc(N3CCC(F)(F)CC3)nc2cc1OCCCN1CCCC1" , the logged Cell Viability turned out to be 47.5732%

---

Test system: Colon cancer organoid
assay summary: Optimized Dual-Glo assay to identify co-culture induced drug vulnerabilities using donated chemical probes and chemogenomics kinase set in O06 CRC organoid and F06 CAF mono and co-culture. […] Cell viability is reported both mono and co-culture models.
Format: functional, Homo sapiens
Design: dose or concentration left out as unconfirmed
condition: Culture type Co-Culture; Transduced with Renilla-dsRed lentivirus
property name: Cell Viability (%)
Dear colleague, please return just the value in %, with no unit written.

Record "O=C(c1ccc(F)c(F)c1Nc1ccc(I)cc1F)N1CC(O)([C@@H]2CCCCN2)C1" , field Cell Viability: 42.4292

The compound listed as "CC1=CC(C)=[N+]2C1=C(CCCCc1cn(CC(=O)N3CCc4nc(NC(=O)[C@H]5CCN(C#N)C5)sc4C3)nn1)c1c(C)cc(C)n1[B-]2(F)F" has a reported Cell Viability of 111.523

get_value(item= "C[C@@]1(Cc2ccc(C#N)cc2)C(=O)N(c2cc(Cl)cc(Cl)c2)c2ncc(C(=O)NC3(c4nc(C5CCC5)no4)CC3)n21" , readout=Cell Viability) returns 100.079

Entry under test: "CC(C)(O)CNc1ncc(-c2ccnc(Nc3ccnc(Cl)c3)n2)c(CC2CC2)n1" . Its Cell Viability was 168.017

Entry "N#CC1(c2ccccn2)CCN(Cc2cc(C(=O)O)c(=O)n3ccccc23)CC1" — recorded Cell Viability = 188.309

Sample "N#CN1CC[C@H](C(=O)Nc2nc3c(s2)CN(C(=O)CN=[N+]=[N-])CC3)C1" ; Cell Viability observed: 104.354

Lookup result for "Cc1cnc(-c2cc(Cl)ccc2F)cc1-n1c(=O)n(CC(N)=O)c2cnccc21" ; measured Cell Viability: 213.932

Reported Cell Viability ( "Clc1cc2c(NC3CCCC3)nnc(-c3ccncc3)c2cc1Cl" ) = 133.642

Sample "C[C@@H]1CCc2ncc(F)cc2[C@H]2CCCN2c2ccn3ncc(c3n2)C(=O)N1" ; Cell Viability observed: 118.761

Kindly note the recorded Cell Viability for "COCc1nc2cnc3cc(-c4c(C)noc4C)c(OC[C@H]4CCNC4)cc3c2n1[C@H](C)c1ccccc1" , which is 183.714

So for "CNC(=O)c1cc(C(=O)N[C@H]2[C@@H]3COC[C@@H]32)cc2c1O[C@@H](CF)[C@@H]2c1ccccc1" , the logged Cell Viability turned out to be 130.888

Entry C[C@@H]1CCN(C(=O)CC#N)C[C@@H]1N(C)c1ncnc2[nH]ccc12.O=C(O)CC(O)(CC(=O)O)C(=O)O [TOFACITINIB CITRATE] — recorded Cell Viability = 91.9737

Value of Cell Viability reported for the compound "CCCc1cc(C)[nH]c(=O)c1CNC(=O)c1cc(-c2ccc(N3CCN(C(C)C)CC3)nc2)cc2c1cnn2C(C)C" is 118.175

So for "C[C@@H]1CN(c2cc(-c3nn(C)c4ccc(OC5(C)CC5)cc34)ncn2)C[C@H](C)O1" , the logged Cell Viability turned out to be 254.626

Memo: "N#CN1CC[C@@H](C(=O)Nc2nc3c(s2)CN(C(=O)CN=[N+]=[N-])CC3)C1" , reported Cell Viability: 58.5555

So for "C[C@]1(O)C[C@@H](c2nc(-c3ccc4ccc(-c5ccccc5)nc4c3)c3c(N)nccn32)C1" , the logged Cell Viability turned out to be 100.619

Entry "CCc1ccccc1C(=O)Nc1n[nH]c2c(C)c(F)c(C3C(C#N)=C(C)N(C)C(C)=C3C#N)cc12" — recorded Cell Viability = 109.489

Cell Viability recorded for this compound, "C[C@H](c1ccc(F)cc1)N(Cc1cccc(C(=O)O)c1)C(=O)c1cnc2ccccc2c1" , is 152.049

The compound identified as "CO[C@H]1CC[C@H](CNc2ccc(S(=O)(=O)NC(=O)c3ccc(N4CCN(CC5=C(c6ccc(Cl)cc6)CC(C)(C)CC5)CC4)cc3Oc3cnc4[nH]ccc4c3)cc2[N+](=O)[O-])CC1" registered its Cell Viability at 108.861

Given item "CCCCN(Cc1ccccc1)C(=O)c1ccc(S(=O)(=O)Nc2ccccc2)cc1" , the value recorded as its Cell Viability is 76.2121

"CC(C)Oc1ccc(-c2c[nH]cc2CN(C)CCN)cc1" has a reported Cell Viability of 178.793

Data point: "COc1cc2c(NC3CCN(C(C)C)CC3)nc(N3CCC(F)(F)CC3)nc2cc1OCCCN1CCCC1" ; Cell Viability = 104.162

Lookup result for "CNC(=O)c1cc(C(=O)N[C@H]2[C@@H]3COC[C@@H]32)cc2c1O[C@H](CF)[C@H]2c1ccccc1" ; measured Cell Viability: 170.924

Query "Cc1noc([C@H]2C[C@@H](c3ccc(C(F)(F)F)cc3)CN(C(=O)N3CCS(=O)(=O)C3)C2)n1" yields Cell Viability of 127.928

Entry "CC(C)(O)c1cncc(-c2nc3ccc(F)cc3n2C2CC2)c1" — recorded Cell Viability = 134.058

Record "Cc1c(Oc2ccc(F)cc2)c(OC(C)C)nn1-c1ccc(C2CC2)cn1" , field Cell Viability: 90.9232

Looking up "O=C(NCC(=O)N1CCCC1)Nc1ccc2cnccc2c1" , I found its Cell Viability recorded as 124.064

Entry "COc1cc(-c2cn([C@H]3CCc4ccccc4N(CC(F)(F)F)C3=O)nn2)ccc1-n1ccc(C)n1" ; Cell Viability = 122.107

Recorded result, "CC(C)NC(=O)N1CC[C@H](NC2=Nc3cc(F)ccc3N(CC(F)F)c3ccc(Cl)cc32)C1" , Cell Viability: 89.4587

Cell Viability recorded for this compound, "CCNC(=O)c1cc2c(N3CCOC[C@@H]3C)ccnc2n1C" , is 156.16

Recorded result, Cc1sc2c(c1C)C(c1ccc(Cl)cc1)=N[C@@H](CC(=O)NCCCCCCCCNC(=O)COc1cccc3c1C(=O)N(C1CCC(=O)NC1=O)C3=O)c1nnc(C)n1-2 (some centres not stated) , Cell Viability: 19.3995

Data point: "CC(=O)N1CCC(c2ccc(C(=O)NC(=N)N)cc2C(F)(F)F)CC1" ; Cell Viability = 189.046
